Source: patent US20100292205A1

- target-system: Recombinant human GSK3β (Homo sapiens, UniProt P49841)
- Construct: His-tag; made in house; host or cells: Sf9 insect cells / baculovirus
- Sequence (P49841 whole entry): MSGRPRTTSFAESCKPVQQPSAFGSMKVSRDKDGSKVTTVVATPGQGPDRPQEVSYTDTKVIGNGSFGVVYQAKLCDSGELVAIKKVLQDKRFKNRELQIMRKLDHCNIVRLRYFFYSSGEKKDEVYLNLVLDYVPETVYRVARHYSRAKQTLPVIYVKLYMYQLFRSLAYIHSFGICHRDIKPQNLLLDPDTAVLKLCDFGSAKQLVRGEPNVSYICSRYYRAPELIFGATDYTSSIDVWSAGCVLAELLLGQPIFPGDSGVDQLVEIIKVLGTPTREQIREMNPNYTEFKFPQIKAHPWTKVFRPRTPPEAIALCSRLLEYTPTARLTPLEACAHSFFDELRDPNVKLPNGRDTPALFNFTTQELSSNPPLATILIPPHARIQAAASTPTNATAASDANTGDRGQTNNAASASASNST
- procedure-details: GSK-3β (Glycogen Synthase Kinase) cell free enzyme assay
- Format: biochemical
- test-context: cell free enzyme assay; Examples 62-155
readout: pIC50
pIC50 field: float, defined as -log10 of concentration (mol/L).

>>> assay_value("COc1ccccc1C(=O)N1C[C@@H]2[C@H](C1)[C@H]2N(C)c1nc(-c2ccncc2F)cc(=O)n1C [Example 106]")
9.04
>>> assay_value("Cn1c(NC2CN(C(=O)c3ccccc3)C2)nc(-c2ccncc2)cc1=O [Example 64]")
6.44
>>> assay_value("CN(c1nc(-c2ccncc2)cc(=O)n1C)C1CCCN(C(=O)Cc2ccccc2)CC1 (stereo not shown) [Example 88]")
6.99
>>> assay_value("CSCCC(=O)N1C[C@@H]2[C@H](C1)[C@H]2N(C)c1nc(-c2ccncc2F)cc(=O)n1C [Example 102]")
7.80
>>> assay_value("CC(=O)O[C@@H](C)C(=O)N1C[C@@H]2[C@H](C1)[C@H]2N(C)c1nc(-c2ccncc2F)cc(=O)n1C [Example 119]")
7.48
>>> assay_value("Cn1c(NC[C@@H]2CCCN2C(=O)Cc2ccccc2)nc(-c2ccncc2)cc1=O [Example 93]")
6.06
>>> assay_value("CCN(c1nc(-c2ccncc2)cc(=O)n1C)C1CCN(C(=O)c2ccccc2)CC1 [Example 74]")
6.84
>>> assay_value("CN(c1nc(-c2ccncc2F)cc(=O)n1C)[C@H]1[C@@H]2CN(C(=O)C3CC=CCC3)C[C@@H]21 (stereo partly shown) [Example 140]")
8.06

*Q* Returns the measured pIC50 for the input compound. Input: CN(c1nc(-c2ccncc2)cc(=O)n1C)C1CCCN(C(=O)c2ccccc2)CC1 (stereo not shown) [Example 72]
*A* 7.21

*Q* Returns the measured pIC50 for the input compound. Input: Cc1cc(C(=O)N2C[C@@H]3[C@H](C2)[C@H]3N(C)c2nc(-c3ccncc3F)cc(=O)n2C)c(C)o1 [Example 147]
*A* 8.43

*Q* Returns the measured pIC50 for the input compound. Input: CCCCOc1ccc(C(=O)N2C[C@@H]3[C@H](C2)[C@H]3N(C)c2nc(-c3ccncc3F)cc(=O)n2C)cc1 [Example 123]
*A* 7.87

*Q* Returns the measured pIC50 for the input compound. Input: CN(c1nc(-c2ccncc2F)cc(=O)n1C)[C@H]1[C@@H]2CN(C(=O)c3ccc(F)c(F)c3)C[C@@H]21 [Example 153]
*A* 8.14

*Q* Returns the measured pIC50 for the input compound. Input: Cn1c(NCC2CN(C(=O)c3ccccc3)C2)nc(-c2ccncc2)cc1=O [Example 76]
*A* 7.14

*Q* Returns the measured pIC50 for the input compound. Input: CN(c1nc(-c2ccncc2F)cc(=O)n1C)[C@H]1[C@@H]2CN(C(=O)c3ccc(OC(F)F)cc3)C[C@@H]21 [Example 113]
*A* 8.07

*Q* Returns the measured pIC50 for the input compound. Input: CCN(c1nc(-c2ccncc2)cc(=O)n1C)C1CCN(C(=O)c2ccccc2)C1 (stereo not shown) [Example 69]
*A* 7.02

*Q* Returns the measured pIC50 for the input compound. Input: Cn1c(NC2CCCN(C(=O)Cc3ccccc3)C2)nc(-c2ccncc2)cc1=O (stereo not shown) [Example 86]
*A* 6.87

----------
- target-system: Recombinant human GSK3β (Homo sapiens)
- Construct: His-tag; made in house; host or cells: Sf9 insect cells / baculovirus
- procedure-details: GSK-3β (Glycogen Synthase Kinase) cell free enzyme assay
- Assay type: biochemical
- test-context: 1 μM; Examples 236-262; read-out: Percent inhibition at 1 μM
Lab note: anything with inhibition at 1 µM at or over 70% counts as TRUE; the rest go in FALSE.

Field: example entries. Status: answers known.
>>> category("CN1C[C@H]2CC[C@@H](C1)N2c1nc(-c2ccncc2)cc(=O)n1C")
"FALSE"
>>> category("CN(c1nc(-c2ccncc2)cc(=O)n1C)[C@@H]1CC[C@H]2N(Cc3ccccc3)CC[C@@]2(C)C1")
"FALSE"
>>> category("Cn1c(N[C@@H]2CN(Cc3ccccc3)C[C@@H]2F)nc(-c2ccncc2)cc1=O")
"TRUE"

*Q* Reported inhibition at 1 µM reaches at least 70% for CN1CCC(Nc2nc(-c3ccncc3)cc(=O)n2C)C1 (centres unmarked) ?
*A* FALSE

*Q* Reported inhibition at 1 µM reaches at least 70% for Cn1c(N[C@@H]2CC[C@@H](NCc3ccccc3)C2)nc(-c2ccncc2)cc1=O ?
*A* FALSE

*Q* Reported inhibition at 1 µM reaches at least 70% for CCN(c1nc(-c2ccncc2)cc(=O)n1C)C1CCCN(Cc2ccccc2)CC1 (centres unmarked) ?
*A* TRUE

*Q* Reported inhibition at 1 µM reaches at least 70% for CN1CCCC(N(C)c2nc(-c3ccncc3)cc(=O)n2C)CC1 (centres unmarked) ?
*A* FALSE

*Q* Reported inhibition at 1 µM reaches at least 70% for Cn1c(N2CC[C@@H]3CN(Cc4ccccc4)C[C@@H]32)nc(-c2ccncc2)cc1=O ?
*A* FALSE

----------
- target-system: Recombinant human GSK3β (Homo sapiens, UniProt P49841)
- Construct: His-tag; made in house; host or cells: Sf9 insect cells / baculovirus
- procedure-details: GSK-3β (Glycogen Synthase Kinase) cell free enzyme assay
- Type: biochemical
- test-context: cell free enzyme assay; Examples 62-155
readout: pIC50
pIC50 field: float, defined as -log10 of concentration (mol/L).

A selection of reference data follows.
>>> assay_value("COc1cccc(CC(=O)N2C[C@@H]3[C@H](C2)[C@H]3N(C)c2nc(-c3ccncc3F)cc(=O)n2C)c1")
7.87
>>> assay_value("Cn1c(NC2CCN(C(=O)c3ccccc3)CC2)nc(-c2ccncc2)cc1=O")
6.69
>>> assay_value("CN(c1nc(-c2ccncc2F)cc(=O)n1C)[C@H]1[C@@H]2CN(C(=O)c3cccc(Cl)n3)C[C@@H]21")
8.41
>>> assay_value("COc1cccc(C(=O)N2C[C@@H]3[C@H](C2)[C@H]3N(C)c2nc(-c3ccncc3F)cc(=O)n2C)c1")
8.84
>>> assay_value("Cn1c(NC2CCCN(C(=O)Cc3ccccc3)CC2)nc(-c2ccncc2)cc1=O (centres unmarked)")
7.27

*Q* Returns the measured pIC50 for the input compound. Input: CCN(c1nc(-c2ccncc2)cc(=O)n1C)C1CCCN(C(=O)c2ccccc2)CC1 (centres unmarked)
*A* 7.44

*Q* Returns the measured pIC50 for the input compound. Input: CN(c1nc(-c2ccncc2F)cc(=O)n1C)[C@H]1[C@@H]2CN(C(=O)c3cc(Cl)cc(Cl)c3)C[C@@H]21
*A* 8.36

*Q* Returns the measured pIC50 for the input compound. Input: Cn1c(NC2CCN(C(=O)Cc3ccccc3)CC2)nc(-c2ccncc2)cc1=O
*A* 6.48

*Q* Returns the measured pIC50 for the input compound. Input: CCC(=O)N1C[C@@H]2[C@H](C1)[C@H]2N(C)c1nc(-c2ccncc2F)cc(=O)n1C
*A* 8.26

----------
- target-system: Recombinant human GSK3β (Homo sapiens)
- Construct: His-tag; made in house; host or cells: Sf9 insect cells / baculovirus
- procedure-details: GSK-3β (Glycogen Synthase Kinase) cell free enzyme assay
- Assay type: biochemical
- test-context: cell free enzyme assay; Examples 1-35
readout: pIC50
pIC50 field: float, defined as -log10 of concentration (mol/L).

A selection of reference data follows.
>>> assay_value("Cn1c(NC2CCCN(C(=O)OC(C)(C)C)CC2)nc(-c2ccncc2)cc1=O (stereo not shown)")
8.04
>>> assay_value("Cn1c(N[C@H]2[C@@H]3CN(C(=O)OC(C)(C)C)C[C@@H]32)nc(-c2ccncc2)cc1=O [Example 6]")
8.55
>>> assay_value("CCN(C[C@H]1CCCN1C(=O)OC(C)(C)C)c1nc(-c2ccncc2)cc(=O)n1C")
8.68

*Q* Returns the measured pIC50 for the input compound. Input: Cn1c(N2CC[C@@H]3CN(C(=O)OC(C)(C)C)C[C@@H]32)nc(-c2ccncc2)cc1=O
*A* 7.01

*Q* Returns the measured pIC50 for the input compound. Input: Cn1c(NCC2CCCCN2C(=O)OC(C)(C)C)nc(-c2ccncc2)cc1=O (stereo not shown)
*A* 6.77

*Q* Returns the measured pIC50 for the input compound. Input: Cn1c(N2[C@@H]3CC[C@H]2CN(C(=O)OC(C)(C)C)C3)nc(-c2ccncc2)cc1=O
*A* 7.49

*Q* Returns the measured pIC50 for the input compound. Input: CCN(C[C@@H]1CCCN1C(=O)OC(C)(C)C)c1nc(-c2ccncc2)cc(=O)n1C
*A* 8.38

*Q* Returns the measured pIC50 for the input compound. Input: CCN(c1nc(-c2ccncc2)cc(=O)n1C)C1CCCN(C(=O)OC(C)(C)C)CC1 (stereo not shown)
*A* 7.51

*Q* Returns the measured pIC50 for the input compound. Input: Cn1c(N2[C@@H]3CC[C@H]2CC(n2cnc4ccccc42)C3)nc(-c2ccncc2)cc1=O (stereo partly shown)
*A* 7.69

*Q* Returns the measured pIC50 for the input compound. Input: Cn1c(NC2CCN(C(=O)OC(C)(C)C)C2)nc(-c2ccncc2)cc1=O (stereo not shown)
*A* 7.37
